Origin of values: patent US20250026724A1

System: Viola tricolor (VIOTR)
Test: Post-emergence herbicidal action, greenhouse pot trial
Format: in vivo
Conditions: Viola tricolor, 504 h, 80 g/ha, read-out: Post-emergence effect against VIOTR
Measurement Kind: pest or weed control at 80 g/ha (%)
I only need the number, in %, no unit after it.

Answered examples (5):
{"columns": ["Compound", "pest or weed control at 80 g/ha (%)"],
 "data": [
  ["COC(=O)C(Oc1nn(-c2cc(F)ccc2F)c(-c2cncc(F)c2)c1Br)SC (centres unmarked) [Example I-07]", 90],
  ["CCOC(=O)C(Oc1nn(-c2ncccc2F)c(-c2ccc(F)nc2)c1C1CC1)SC (centres unmarked) [Example I-20]", 80],
  ["CSC(Oc1nn(-c2ncccc2F)c(-c2cncc(F)c2)c1C1CC1)C(=O)O (centres unmarked) [Example I-44]", 90],
  ["CCOC(=O)C(Oc1nn(-c2cc(F)ccc2F)c(-c2cncc(F)c2)c1I)SC (centres unmarked) [Example I-02]", 80],
  ["COC(=O)C(Oc1nn(-c2cc(F)ccc2F)c(-c2cncc(F)c2)c1C1CC1)SC (centres unmarked) [Example I-08]", 90]
]}

Write down measured pest or weed control at 80 g/ha (Viola tricolor (VIOTR)) for this compound. COC(=O)C(Oc1nn(-c2ncccc2F)c(-c2ccc(F)nc2)c1Cl)SC (centres unmarked) [Example I-56]
80

Write down measured pest or weed control at 80 g/ha (Viola tricolor (VIOTR)) for this compound. CCOC(=O)C(Oc1nn(-c2ncccc2F)c(-c2cncc(F)c2)c1C1CC1)SC (centres unmarked) [Example I-41]
90

Write down measured pest or weed control at 80 g/ha (Viola tricolor (VIOTR)) for this compound. CCOC(=O)C(Oc1nn(-c2ccccc2)c(-c2ccc(F)nc2)c1Br)SC (centres unmarked) [Example I-04]
80

Write down measured pest or weed control at 80 g/ha (Viola tricolor (VIOTR)) for this compound. CCOC(=O)C(Oc1nn(-c2cc(F)ccc2F)c(-c2cncc(F)c2)c1Br)SC (centres unmarked) [Example I-03]
90

Write down measured pest or weed control at 80 g/ha (Viola tricolor (VIOTR)) for this compound. COC(=O)C(Oc1nn(-c2ncccc2F)c(-c2cncc(F)c2)c1C1CC1)SC (centres unmarked) [Example I-66]
90

Write down measured pest or weed control at 80 g/ha (Viola tricolor (VIOTR)) for this compound. COC(=O)C(Oc1nn(-c2ncccc2F)c(-c2ccc(F)nc2)c1C1CC1)SC (centres unmarked) [Example I-59]
80

Write down measured pest or weed control at 80 g/ha (Viola tricolor (VIOTR)) for this compound. CCOC(=O)C(Oc1nn(-c2ccccc2F)c(-c2ccc(F)nc2)c1C(F)(F)F)SC (centres unmarked) [Example I-46]
80

Write down measured pest or weed control at 80 g/ha (Viola tricolor (VIOTR)) for this compound. COC(=O)C(Oc1nn(-c2ccccc2F)c(-c2ccc(F)nc2)c1I)SC (centres unmarked) [Example I-52]
80

Write down measured pest or weed control at 80 g/ha (Viola tricolor (VIOTR)) for this compound. CCOC(=O)C(Oc1nn(-c2ncccc2F)c(-c2ccc(F)nc2)c1Br)SC (single isomer, unassigned) [Example I-28]
80
